# inhibition values compiled below
# Test system: Platelet-derived growth factor receptor alpha (Homo sapiens), P16234 [D842V]
# Sequence (P16234 whole entry D842V): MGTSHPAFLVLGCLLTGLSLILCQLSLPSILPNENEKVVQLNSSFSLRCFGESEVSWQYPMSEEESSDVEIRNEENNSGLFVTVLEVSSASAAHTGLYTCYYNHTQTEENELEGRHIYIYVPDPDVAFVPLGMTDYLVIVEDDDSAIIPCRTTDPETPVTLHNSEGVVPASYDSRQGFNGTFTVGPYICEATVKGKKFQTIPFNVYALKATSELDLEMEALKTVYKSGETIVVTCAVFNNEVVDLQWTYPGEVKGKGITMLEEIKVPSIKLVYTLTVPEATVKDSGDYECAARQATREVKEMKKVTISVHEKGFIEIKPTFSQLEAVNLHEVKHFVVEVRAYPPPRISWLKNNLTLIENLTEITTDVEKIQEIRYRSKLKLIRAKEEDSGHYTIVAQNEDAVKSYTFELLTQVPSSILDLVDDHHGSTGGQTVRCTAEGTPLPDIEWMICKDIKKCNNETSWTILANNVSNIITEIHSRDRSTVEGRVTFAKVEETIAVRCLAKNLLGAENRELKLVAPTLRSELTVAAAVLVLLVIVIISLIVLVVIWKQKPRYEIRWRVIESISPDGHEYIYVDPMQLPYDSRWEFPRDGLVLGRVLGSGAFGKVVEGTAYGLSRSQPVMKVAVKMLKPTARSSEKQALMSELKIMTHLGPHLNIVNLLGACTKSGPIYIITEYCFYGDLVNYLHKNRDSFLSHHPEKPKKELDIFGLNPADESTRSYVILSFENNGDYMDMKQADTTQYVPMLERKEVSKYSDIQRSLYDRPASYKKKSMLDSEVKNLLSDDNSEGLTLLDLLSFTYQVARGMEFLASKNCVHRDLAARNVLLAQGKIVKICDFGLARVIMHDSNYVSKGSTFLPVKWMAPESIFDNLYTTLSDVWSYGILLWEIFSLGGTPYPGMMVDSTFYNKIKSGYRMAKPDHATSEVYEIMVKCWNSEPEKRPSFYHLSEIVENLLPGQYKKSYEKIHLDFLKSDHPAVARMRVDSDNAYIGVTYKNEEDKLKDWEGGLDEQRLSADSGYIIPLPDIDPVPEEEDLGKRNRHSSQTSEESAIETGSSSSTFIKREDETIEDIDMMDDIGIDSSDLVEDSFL
# reportedConditions: at 0.1 µM
recordedMetric: inhibition (%)

1. Nc1nc(-c2cccc(Cl)c2)c(-c2ccc3ncccc3n2)s1    8.3
2. CC(C)COC(=O)c1ccc2c(c1)/C(=C/Nc1ccc(S(N)(=O)=O)cc1)C(=O)N2    60.7
3. COc1cc(Nc2nccc(Nc3ccc4c(C)n[nH]c4c3)n2)cc(OC)c1OC    50
4. COc1cc(N2CCN(C(C)C)CC2)ccc1Nc1nc(Nc2ccc(F)cc2C(N)=O)c2cc[nH]c2n1    1.57
5. Cc1ccc2c(-c3ccnc(Nc4ccccc4)n3)c(-c3ccc(F)cc3)nn2n1    8.2
6. Cc1cccc2c1NC(=O)/C2=N\Nc1ccc(S(N)(=O)=O)cc1    0.21
7. Fc1ccc(-c2cc(-c3c[nH]nc3-c3ccccn3)ccn2)cc1    4.02
8. c1ccc(-c2nc3n(c2-c2ccc4c(c2)OCO4)CCC3)nc1    3.87
9. O=S(=O)(CCNCc1ccc(-c2ccc3ncnc(Nc4ccc(OCc5cccc(F)c5)c(Cl)c4)c3c2)o1)c1ccccc1    3.35
10. COC(=O)Nc1nc2ccc(S(=O)(=O)c3ccc(NC(=O)Nc4cc(C(F)(F)F)ccc4F)cc3)cc2[nH]1    3.19
11. CCn1c(-c2nonc2N)nc2c(C#CC(C)(C)O)nc(OC[C@H](N)c3ccccc3)cc21    12.2
12. CC(=O)NCc1cccc(C#Cc2cncnc2Nc2ccc(OCc3cccc(F)c3)c(Cl)c2)c1    1.48
13. CCCN1CCC(c2ccc(Nc3nc(Nc4cc(F)ccc4C(N)=O)c4cc[nH]c4n3)c(OC)c2)CC1    6.28
14. Clc1ccc(-c2nn3ncccc3c2-c2ccnc(Nc3ccccc3)n2)cc1    6.95
15. COc1ccc(-c2cc(-c3c[nH]nc3-c3ccccn3)ccn2)cc1    14.9
16. CCn1c(-c2nonc2N)nc2c(C#CC(C)(C)O)ncc(OC3CCNCC3)c21    5.06
17. CS(=O)(=O)CCNCc1ccc(-c2ccc3ncnc(Nc4ccc(OCc5ccccc5)c(C(F)(F)F)c4)c3c2)o1    2.98
18. Nc1ncc(-c2cccc(S(N)(=O)=O)c2)c2scc(-c3ccc(F)c(Cl)c3)c12    7.66
19. CNC(=O)c1cccc(C#Cc2cncnc2Nc2ccc(OCc3cccc(F)c3)c(Cl)c2)c1    -0.74
20. N#Cc1c(NC(=O)c2ccc(F)cc2)sc2c1CCCC2    1.23
21. Fc1ccc(-c2nn3ccccc3c2-c2ccncc2)cc1    1.99
22. CCn1c(-c2nonc2N)nc2cnc(Oc3cccc(NC(=O)c4ccc(N(C)C)cc4)c3)cc21    1.28
23. CCCN(CCS(C)(=O)=O)Cc1ccc(-c2ccc3ncnc(Nc4ccc(OCc5cccc(F)c5)c(Cl)c4)c3c2)o1    3.62
24. COc1ccc2[nH]c3c4[nH]c5ccc(OC)cc5c4c4c(c3c2c1)C(=O)NC4=O    94.8
25. COc1cccc(-n2ncc3c(N/N=C/c4ccc(F)cc4)ncnc32)c1    9.48
26. Fc1ccc(-c2nn3ncccc3c2-c2ccnc(Nc3ccc4c(c3)OCCO4)n2)cc1    12.1
27. COc1ccc(-c2cc3c(N)ncnc3o2)cc1    2.85
28. COc1cc2ncn(-c3cc(OCc4ccccc4C(F)(F)F)c(C(=O)N(C)C)s3)c2cc1OC    4.06
29. [O-][S+]1CCN(Cc2ccc(-c3ccc4ncnc(Nc5ccc(OCc6cccc(F)c6)c(Cl)c5)c4c3)o2)CC1    4.45
30. COc1cc2c(cc1Nc1nc(Nc3ccsc3C(N)=O)c3cc[nH]c3n1)N(C(=O)CN(C)C)CCC2(C)C    5.04
31. CS(=O)(=O)CCNCc1coc(-c2ccc3ncnc(Nc4ccc(OCc5ccccc5)cc4)c3c2)c1    3.71
32. CNC(=O)c1cc(-c2ccc(F)cc2)cc(-c2ccc(S(=O)(=O)N3CCCC3)cc2)c1N    2.05
33. CNC(=O)c1cncc(/C=C/c2ccccc2Cl)c1    -1.08
34. Fc1cccc(COc2ccc(Nc3ncnc4sc(-c5ccco5)cc34)cc2Cl)c1    3
35. CN1CCC(n2cnc(-c3ccc(F)cc3)c2-c2ccnc(N)n2)CC1    3.56
36. CC1=C(C(=O)Nc2cc(Cl)c3[nH]ncc3c2)C(c2ccc(C(F)(F)F)cc2)CC(=O)N1 (configuration not stated)    2.44
37. CCNC(=O)O[C@H]1CN[C@H](C#Cc2cc3ncnc(Nc4ccc(OCc5cccc(F)c5)c(Cl)c4)c3s2)C1    1.55
38. Cc1ccc(O)cc1Nc1ccnc2cc(-c3ccccn3)ccc12    81.4
39. COc1cc(/C=N/Nc2ncnc3[nH]ncc23)ccc1O    28.4
40. O=C(Nc1n[nH]c2cc(-c3ccc(F)cc3)ccc12)C1CC1    4.21
41. CN1CCC(n2cnc(-c3ccc(F)cc3)c2-c2ccnc(Nc3ccccc3)n2)CC1    4.56
42. CCn1c(-c2nonc2N)nc2ccccc21    2.53
